The measured values listed here are drawn from patent US20250206724A1.

Reported values of DC50 for individual entries
target: CDK11A (Homo sapiens); conditions: displacement of SNS-032-Atto590 probe (0.002 μM) from CDK11A-p58 (0.032 uM), fluorescence polarization;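 also: compound preincubated 30 min with CDK11A-p58, then probe added and polarization (mP) read 15 min later, 0% displacement is probe plus enzyme, 100% is probe alone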
Sequence (Q9UQ88 346-783): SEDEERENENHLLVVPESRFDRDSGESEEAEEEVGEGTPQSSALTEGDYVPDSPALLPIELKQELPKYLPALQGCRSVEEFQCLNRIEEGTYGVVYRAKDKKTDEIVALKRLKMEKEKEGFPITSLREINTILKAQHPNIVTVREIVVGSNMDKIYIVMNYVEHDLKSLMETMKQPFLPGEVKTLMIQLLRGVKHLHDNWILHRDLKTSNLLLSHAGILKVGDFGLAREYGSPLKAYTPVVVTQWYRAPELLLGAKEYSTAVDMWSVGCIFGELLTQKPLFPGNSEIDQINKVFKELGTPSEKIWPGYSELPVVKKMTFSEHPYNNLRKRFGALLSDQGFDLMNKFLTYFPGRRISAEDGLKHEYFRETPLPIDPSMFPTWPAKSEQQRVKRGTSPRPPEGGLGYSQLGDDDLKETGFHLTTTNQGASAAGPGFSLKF
Where a name gives a salt, the structure may show the parent alone.
Report field: quantity (unit follows the number).

Before answering, review these 6 worked examples.
MOLECULE	DC50
N#Cc1ccc(Cl)c(-c2ccc3[nH]nc(NC(=O)C4CN5CCC4CC5)c3c2)c1 (centres unmarked) [compound 188, hydrochloride]	275 nM
CN1CCC(C(=O)Nc2n[nH]c3ccc(-c4c(F)cccc4F)cc23)CC1 [cpd 105, hydrochloride]	364 nM
O=C(Nc1n[nH]c2ccc(-c3c(Cl)cccc3Cl)cc12)[C@@H]1CCCNC1 [compound 169, hydrochloride]	21 nM
COC(=O)c1cc(-c2ccc3[nH]nc(NC(=O)[C@@H]4CCNC4)c3c2)c(Cl)cc1N [cpd 54, dihydrochloride]	102 nM
COc1ccc(Cl)c(-c2ccc3[nH]nc(NC(=O)C4CCCNC4)c3c2)c1 (centres unmarked) [cpd 17, hydrochloride]	52 nM
CN1CCC(C(=O)Nc2n[nH]c3ccc(-c4ccc(C=O)cc4F)cc23)CC1 [cpd 118, hydrochloride]	467 nM

Entry O=C(Nc1n[nH]c2ccc(-c3c(F)cccc3Cl)cc12)[C@H]1CCCNC1 [compound 173, hydrochloride] , DC50 reported as 391 nM

Entry CN1CCC(C(=O)Nc2n[nH]c3ccc(-c4ccc(F)cc4)cc23)CC1 [cpd 87, hydrochloride] , DC50 reported as 988 nM

Entry CC1(C)CCC(C(=O)Nc2n[nH]c3ccc(-c4cc(C#N)ccc4Cl)cc23)CN1 (single isomer, unassigned; (-)) [compound 203] , DC50 reported as 181 nM

Entry O=C(Nc1n[nH]c2ccc(-c3c(Cl)cccc3Cl)cc12)C12CCN(CC1)CC2 [compound 160] , DC50 reported as 221 nM

Entry CC(=O)c1ccc(F)c(-c2ccc3[nH]nc(NC(=O)[C@@H]4CCCNC4)c3c2)c1 [cpd 19, hydrochloride] , DC50 reported as 27 nM

Entry COc1ccc(F)c(-c2ccc3[nH]nc(NC(=O)[C@@H]4CCCNC4)c3c2)c1 [cpd 20, hydrochloride] , DC50 reported as 89 nM

Entry COC(=O)c1cc(-c2ccc3[nH]nc(NC(=O)[C@@H]4CCCNC4)c3c2)c(Cl)cc1Cl [cpd 42, hydrochloride] , DC50 reported as 57 nM

Entry CNC1CC(C(=O)Nc2n[nH]c3ccc(-c4ccc(O)cc4Cl)cc23)C1 (centres unmarked) [cpd 63, hydrochloride] , DC50 reported as 48 nM
